METHOD: activity coefficient (dimensionless); of the first substance listed, at infinite dilution; xn = mol fraction of the nth substance listed
EXPERIMENTAL PARAMETERS: 278.15 K; Liquid; Chromatography; x1 = 0
# activity coefficient values compiled below
Enter a number only.

>  <COMPOUND>
C=CCCCC [hex-1-ene] + O=Cc1ccco1

>  <activity coefficient>
15.2

$$$$

Query: Fill in the blank: the reported activity coefficient of C#CCCCC [1-hexyne] + O=Cc1ccco1 is ____.
Result: 6.27

====

METHOD: activity coefficient (dimensionless); of the first substance listed, at infinite dilution; xn = mol fraction of the nth substance listed
EXPERIMENTAL PARAMETERS: 278.15 K; Liquid; Chromatography; x1 = 0
QUANTITY KIND: activity coefficient
Enter a number only.

The examples below pair each entry with its known result.
>  <MOLECULE>
CCCCCC [hexane] + O=Cc1ccco1

>  <QUANTITY KIND>
activity coefficient

>  <TEST VALUE>
31.9

$$$$
>  <MOLECULE>
C#CCCCCC [1-heptyne] + O=Cc1ccco1

>  <QUANTITY KIND>
activity coefficient

>  <TEST VALUE>
20

$$$$
>  <MOLECULE>
C1CCCCC1 [cyclohexane] + O=Cc1ccco1

>  <QUANTITY KIND>
activity coefficient

>  <TEST VALUE>
16.8

$$$$

Query: Fill in the blank: the reported activity coefficient of CCCCCCC [heptane] + O=Cc1ccco1 is ____.
Result: 38.1

Query: Can you handle CCCCC [pentane] + O=Cc1ccco1 next?
Result: 24.3

Query: Can you handle C1CCCCCC1 [cycloheptane] + O=Cc1ccco1 next?
Result: 18.6

Query: Can you handle C1CCCC1 [cyclopentane] + O=Cc1ccco1 next?
Result: 14.2

Query: Can you handle c1ccccc1 [benzene] + O=Cc1ccco1 next?
Result: 2.55
